As shown below, each of these compounds has a reported inhibition at 1 µM value.
# assay target: Tyk2 (Homo sapiens, UniProt P29597)
# Construct: purchased Invitrogen
# Sequence (P29597 whole entry): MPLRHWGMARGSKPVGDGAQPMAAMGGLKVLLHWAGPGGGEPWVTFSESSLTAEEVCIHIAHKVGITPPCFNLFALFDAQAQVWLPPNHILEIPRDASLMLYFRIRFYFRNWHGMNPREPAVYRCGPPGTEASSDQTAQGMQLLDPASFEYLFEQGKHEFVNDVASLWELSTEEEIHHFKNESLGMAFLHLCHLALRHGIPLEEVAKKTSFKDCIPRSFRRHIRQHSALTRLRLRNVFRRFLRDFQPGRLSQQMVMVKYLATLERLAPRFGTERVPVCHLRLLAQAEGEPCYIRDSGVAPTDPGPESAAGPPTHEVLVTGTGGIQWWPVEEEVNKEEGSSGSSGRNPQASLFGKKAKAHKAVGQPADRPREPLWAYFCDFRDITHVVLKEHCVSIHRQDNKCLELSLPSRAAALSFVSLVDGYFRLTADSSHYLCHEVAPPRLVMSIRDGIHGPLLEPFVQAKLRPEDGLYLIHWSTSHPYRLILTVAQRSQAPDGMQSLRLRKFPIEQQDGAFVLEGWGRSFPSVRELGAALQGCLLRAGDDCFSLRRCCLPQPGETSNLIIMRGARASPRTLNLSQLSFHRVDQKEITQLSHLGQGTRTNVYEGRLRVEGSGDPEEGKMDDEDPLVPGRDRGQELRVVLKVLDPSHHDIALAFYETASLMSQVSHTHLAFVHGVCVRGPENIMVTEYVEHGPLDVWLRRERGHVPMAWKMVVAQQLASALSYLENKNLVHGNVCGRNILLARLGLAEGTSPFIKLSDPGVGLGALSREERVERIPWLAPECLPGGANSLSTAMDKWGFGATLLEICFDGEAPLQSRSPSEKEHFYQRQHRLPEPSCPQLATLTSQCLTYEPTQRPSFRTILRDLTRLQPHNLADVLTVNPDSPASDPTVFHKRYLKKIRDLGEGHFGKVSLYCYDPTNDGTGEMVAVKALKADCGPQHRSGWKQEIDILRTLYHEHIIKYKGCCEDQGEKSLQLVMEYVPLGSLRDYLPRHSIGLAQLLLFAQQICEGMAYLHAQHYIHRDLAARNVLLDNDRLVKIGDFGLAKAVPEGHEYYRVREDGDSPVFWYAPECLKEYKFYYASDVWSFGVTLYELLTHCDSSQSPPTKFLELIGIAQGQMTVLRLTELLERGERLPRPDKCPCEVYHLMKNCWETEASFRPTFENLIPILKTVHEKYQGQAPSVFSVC
# measurement protocol: Tyk2 enzyme inhibition test (LANCE method)
# Assay type: biochemical
# experimental context: test compound 1 μM; read-out: Inhibitory rate (%) Tyk2 1 μM

>  <compound>
O=C1OCCN1Cc1ccc(-c2nn(-c3c(F)cccc3F)c3c(Cl)c[nH]c(=O)c23)cc1 [Example 186]

>  <inhibition at 1 µM, %>
99

$$$$
>  <compound>
N#CCc1ccc(-c2cn(C3CCOCC3)c3cc[nH]c(=O)c23)cc1 [Example 25]

>  <inhibition at 1 µM, %>
71

$$$$
>  <compound>
N#CCc1cccc(-c2nn(-c3c(F)cccc3F)c3c(Br)c[nH]c(=O)c23)c1 [Example 146]

>  <inhibition at 1 µM, %>
98

$$$$
>  <compound>
NC(=O)Cc1ccc(-c2nn(C3CCCC3)c3cc[nH]c(=O)c23)cc1 [Example 182]

>  <inhibition at 1 µM, %>
98

$$$$
>  <compound>
COc1cc(N)cc(F)c1-n1cc(-c2csc(C(N)=O)c2)c2c(=O)[nH]ccc21 [Example 302]

>  <inhibition at 1 µM, %>
95

$$$$
>  <compound>
CC(C)(C)n1nc(-c2ccc(N3CCOCC3)cc2)c2c(=O)[nH]ccc21 [Example 243]

>  <inhibition at 1 µM, %>
76

$$$$
>  <compound>
O=C(NCCO)c1cc(-c2nn(C3CCCC3)c3cc[nH]c(=O)c23)cs1 [Example 157]

>  <inhibition at 1 µM, %>
99

$$$$
>  <compound>
N#Cc1c[nH]c(=O)c2c(-c3cccnc3)cn(C3CCCC3)c12 [Example 133]

>  <inhibition at 1 µM, %>
90

$$$$
>  <compound>
CN(C)C(=O)c1cc(-c2nn(C3CCCC3)c3cc[nH]c(=O)c23)cs1 [Example 286]

>  <inhibition at 1 µM, %>
97

$$$$
>  <compound>
N#Cc1c[nH]c(=O)c2c(-c3ccc(CC(N)=O)cc3)cn(C3CCCC3)c12 [Example 95]

>  <inhibition at 1 µM, %>
98

$$$$
>  <compound>
O=c1[nH]ccc2c1c(-c1ccccc1F)nn2C1CCCC1 [Example 56]

>  <inhibition at 1 µM, %>
31

$$$$
>  <compound>
Cc1ccccc1-n1nc(-c2ccc(S(N)(=O)=O)cc2)c2c(=O)[nH]ccc21 [Example 211]

>  <inhibition at 1 µM, %>
98

$$$$
>  <compound>
N#CCc1ccc(-c2cn(C3CCOC3)c3cc[nH]c(=O)c23)cc1 (centres unmarked) [Example 22]

>  <inhibition at 1 µM, %>
53

$$$$
>  <compound>
Nc1cc(F)c(-n2nc(-c3ccc(S(N)(=O)=O)cc3)c3c(=O)[nH]ccc32)c(F)c1 [Example 303]

>  <inhibition at 1 µM, %>
100

$$$$
>  <compound>
O=c1[nH]cc(Cl)c2c1c(-c1ccc(N3CCCOCC3)cc1)nn2-c1c(F)cccc1F [Example 207]

>  <inhibition at 1 µM, %>
100

$$$$
>  <compound>
N#CCc1ccc(-c2nn(-c3c(F)cccc3F)c3cc[nH]c(=O)c23)cc1 [Example 39]

>  <inhibition at 1 µM, %>
98

$$$$
>  <compound>
N#Cc1c[nH]c(=O)c2c(Nc3cccc(C(N)=O)c3)cn(C3CCCC3)c12 [Example 178]

>  <inhibition at 1 µM, %>
99

$$$$

====

# assay target: JAK1 (Homo sapiens, UniProt P23458)
# Construct: purchased Invitrogen
# Sequence (P23458 whole entry): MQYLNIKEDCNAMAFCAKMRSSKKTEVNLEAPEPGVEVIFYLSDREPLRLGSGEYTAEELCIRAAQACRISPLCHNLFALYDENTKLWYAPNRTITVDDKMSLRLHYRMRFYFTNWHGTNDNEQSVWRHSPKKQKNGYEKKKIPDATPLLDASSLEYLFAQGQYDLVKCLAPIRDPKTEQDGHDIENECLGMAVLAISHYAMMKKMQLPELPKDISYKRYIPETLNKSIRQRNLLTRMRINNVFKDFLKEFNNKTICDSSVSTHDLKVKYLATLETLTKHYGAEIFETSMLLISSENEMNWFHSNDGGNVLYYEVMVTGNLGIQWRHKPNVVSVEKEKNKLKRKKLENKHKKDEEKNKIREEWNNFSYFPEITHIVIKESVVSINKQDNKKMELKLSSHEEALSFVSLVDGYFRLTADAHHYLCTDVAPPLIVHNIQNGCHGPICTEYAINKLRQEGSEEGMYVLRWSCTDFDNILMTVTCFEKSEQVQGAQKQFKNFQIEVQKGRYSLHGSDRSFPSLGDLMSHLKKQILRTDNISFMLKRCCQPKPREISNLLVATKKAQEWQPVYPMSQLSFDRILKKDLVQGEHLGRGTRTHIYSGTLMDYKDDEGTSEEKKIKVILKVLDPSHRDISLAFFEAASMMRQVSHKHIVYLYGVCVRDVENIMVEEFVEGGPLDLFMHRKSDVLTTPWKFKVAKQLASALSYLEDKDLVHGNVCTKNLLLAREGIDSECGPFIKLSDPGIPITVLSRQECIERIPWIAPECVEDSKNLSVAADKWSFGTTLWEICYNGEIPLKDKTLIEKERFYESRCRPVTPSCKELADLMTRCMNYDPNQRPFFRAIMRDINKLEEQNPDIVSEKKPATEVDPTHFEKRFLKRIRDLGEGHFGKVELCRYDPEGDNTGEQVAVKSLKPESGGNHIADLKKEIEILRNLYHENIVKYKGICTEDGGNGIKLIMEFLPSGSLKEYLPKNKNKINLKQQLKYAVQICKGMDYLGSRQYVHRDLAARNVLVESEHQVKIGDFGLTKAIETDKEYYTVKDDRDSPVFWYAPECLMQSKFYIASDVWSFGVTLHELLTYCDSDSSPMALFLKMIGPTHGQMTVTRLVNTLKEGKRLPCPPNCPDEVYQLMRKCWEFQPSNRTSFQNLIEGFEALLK
# measurement protocol: JAK1 enzyme inhibition test (LANCE method)
# Type: biochemical
# experimental context: test compound 1 μM; read-out: Inhibitory rate (%) JAK1 1 μM
Structures can show the parent of a compound that is named as a salt.
Items are presented alongside their recorded inhibition at 1 µM.

>  <compound>
Cc1ccccc1-c1nn(-c2csc(C(=O)O)c2)c2c(=O)[nH]cc(C#N)c12 [Example 69]

>  <assay target>
JAK1 (Homo sapiens, UniProt P23458)

>  <inhibition at 1 µM>
28%

$$$$
>  <compound>
N#Cc1c[nH]c(=O)c2c1c(C1CCCC1)nn2-c1csc(C(N)=O)c1 [Example 66]

>  <assay target>
JAK1 (Homo sapiens, UniProt P23458)

>  <inhibition at 1 µM>
66%

$$$$
>  <compound>
NC(=O)c1cc(-c2cn(C3CCCC3)c3c(C(=O)O)c[nH]c(=O)c23)cs1 [Example 61]

>  <assay target>
JAK1 (Homo sapiens, UniProt P23458)

>  <inhibition at 1 µM>
8%

$$$$
>  <compound>
NS(=O)(=O)c1ccc(-c2cn([C@H]3CC[C@@H](O)CC3)c3cc[nH]c(=O)c23)cc1 [Example 32]

>  <assay target>
JAK1 (Homo sapiens, UniProt P23458)

>  <inhibition at 1 µM>
98%

$$$$
>  <compound>
O=c1[nH]ccc2c1c(-c1ccccc1)cn2C1CCCC1 [Example 1]

>  <assay target>
JAK1 (Homo sapiens, UniProt P23458)

>  <inhibition at 1 µM>
40%

$$$$
>  <compound>
NC(=O)c1cc(F)cc(-c2nn(-c3c(F)cccc3F)c3c(Cl)c[nH]c(=O)c23)c1 [Example 270]

>  <assay target>
JAK1 (Homo sapiens, UniProt P23458)

>  <inhibition at 1 µM>
0%

$$$$
>  <compound>
O=C1COCCN1c1ccc(-c2nn(-c3c(F)cccc3F)c3cc[nH]c(=O)c23)cc1 [Example 304]

>  <assay target>
JAK1 (Homo sapiens, UniProt P23458)

>  <inhibition at 1 µM>
97%

$$$$
>  <compound>
COC(=O)c1c[nH]c(=O)c2c(-c3ccc(C(N)=O)cc3)cn(C3CCCC3)c12 [Example 29]

>  <assay target>
JAK1 (Homo sapiens, UniProt P23458)

>  <inhibition at 1 µM>
14%

$$$$
>  <compound>
Nc1cc(F)c(-n2nc(-c3ccc(S(N)(=O)=O)cc3)c3c(=O)[nH]ccc32)c(F)c1 [Example 303]

>  <assay target>
JAK1 (Homo sapiens, UniProt P23458)

>  <inhibition at 1 µM>
99%

$$$$
>  <compound>
N#CCc1ccc(-c2cn(C3CCOC3)c3cc[nH]c(=O)c23)cc1 (stereo not drawn) [Example 22]

>  <assay target>
JAK1 (Homo sapiens, UniProt P23458)

>  <inhibition at 1 µM>
77%

$$$$
>  <compound>
CC(=O)Nc1ccc(-c2nn(-c3c(F)cccc3F)c3cc[nH]c(=O)c23)cc1 [Example 277]

>  <assay target>
JAK1 (Homo sapiens, UniProt P23458)

>  <inhibition at 1 µM>
95%

$$$$
>  <compound>
NC(=O)c1cc(-c2nn([C@H]3CC[C@H](N)CC3)c3cc[nH]c(=O)c23)cs1 [Example 299]

>  <assay target>
JAK1 (Homo sapiens, UniProt P23458)

>  <inhibition at 1 µM>
99%

$$$$
>  <compound>
O=c1[nH]ccc2c1c(-c1ccc(C3=CCOCC3)cc1)nn2-c1c(F)cccc1F [Example 256]

>  <assay target>
JAK1 (Homo sapiens, UniProt P23458)

>  <inhibition at 1 µM>
92%

$$$$
>  <compound>
NC(=O)c1cc(F)cc(-c2nn(-c3c(F)cccc3F)c3cc[nH]c(=O)c23)c1 [Example 268]

>  <assay target>
JAK1 (Homo sapiens, UniProt P23458)

>  <inhibition at 1 µM>
4%

$$$$
>  <compound>
NC(=O)c1cc(-c2cn(C3CCCC3)c3c(CO)c[nH]c(=O)c23)cs1 [Example 40]

>  <assay target>
JAK1 (Homo sapiens, UniProt P23458)

>  <inhibition at 1 µM>
78%

$$$$
>  <compound>
Cc1ccccc1-c1nn(-c2csc(C(N)=O)c2)c2c(=O)[nH]cc(C#N)c12 [Example 70]

>  <assay target>
JAK1 (Homo sapiens, UniProt P23458)

>  <inhibition at 1 µM>
41%

$$$$
>  <compound>
CC(C)(C)n1nc(Nc2cccc(S(N)(=O)=O)c2)c2c(=O)[nH]ccc21 [Example 248]

>  <assay target>
JAK1 (Homo sapiens, UniProt P23458)

>  <inhibition at 1 µM>
96%

$$$$
>  <compound>
N#CCc1cccc(-c2nn(-c3c(F)cccc3F)c3c(Br)c[nH]c(=O)c23)c1 [Example 146]

>  <assay target>
JAK1 (Homo sapiens, UniProt P23458)

>  <inhibition at 1 µM>
69%

$$$$
>  <compound>
N#Cc1c[nH]c(=O)c2c(-c3cccs3)cn(C3CCCC3)c12 [Example 134]

>  <assay target>
JAK1 (Homo sapiens, UniProt P23458)

>  <inhibition at 1 µM>
78%

$$$$
>  <compound>
NC(=O)c1cc(-c2nn(C3CCCC3)c3c(C4CC4)c[nH]c(=O)c23)cs1 [Example 282]

>  <assay target>
JAK1 (Homo sapiens, UniProt P23458)

>  <inhibition at 1 µM>
76%

$$$$
>  <compound>
CC1(Cn2nc(-c3csc(C(N)=O)c3)c3c(=O)[nH]ccc32)COC1 [Example 141]

>  <assay target>
JAK1 (Homo sapiens, UniProt P23458)

>  <inhibition at 1 µM>
99%

$$$$
>  <compound>
N#Cc1c[nH]c(=O)c2c(-c3ccsc3)cn(C3CCCC3)c12 [Example 106]

>  <assay target>
JAK1 (Homo sapiens, UniProt P23458)

>  <inhibition at 1 µM>
91%

$$$$
>  <compound>
NC(=O)c1cc(-c2nn(-c3ccccn3)c3cc[nH]c(=O)c23)cs1 [Example 247]

>  <assay target>
JAK1 (Homo sapiens, UniProt P23458)

>  <inhibition at 1 µM>
86%

$$$$
>  <compound>
CNC(=O)C1CCN(c2ccc(-c3nn(-c4c(F)cccc4F)c4cc[nH]c(=O)c34)cc2)CC1 [Example 310]

>  <assay target>
JAK1 (Homo sapiens, UniProt P23458)

>  <inhibition at 1 µM>
93%

$$$$
>  <compound>
N#Cc1c[nH]c(=O)c2c(-c3ccn[nH]3)cn(C3CCCC3)c12 [Example 125, hydrochloride]

>  <assay target>
JAK1 (Homo sapiens, UniProt P23458)

>  <inhibition at 1 µM>
80%

$$$$
>  <compound>
CCC(CC)n1cc(-c2csc(C#N)c2)c2c(=O)[nH]ccc21 [Example 9]

>  <assay target>
JAK1 (Homo sapiens, UniProt P23458)

>  <inhibition at 1 µM>
97%

$$$$
>  <compound>
N#CCOc1ccc(-c2nn(-c3c(F)cccc3F)c3c(Cl)c[nH]c(=O)c23)cc1 [Example 167]

>  <assay target>
JAK1 (Homo sapiens, UniProt P23458)

>  <inhibition at 1 µM>
53%

$$$$
>  <compound>
N#Cc1c[nH]c(=O)c2c(-c3ccc(OCC(N)=O)cc3)cn(C3CCCC3)c12 [Example 120]

>  <assay target>
JAK1 (Homo sapiens, UniProt P23458)

>  <inhibition at 1 µM>
88%

$$$$
>  <compound>
NC(=O)c1cc(-n2nc(C3CCCC3)c3c(Br)c[nH]c(=O)c32)cs1 [Example 67]

>  <assay target>
JAK1 (Homo sapiens, UniProt P23458)

>  <inhibition at 1 µM>
55%

$$$$
>  <compound>
N#CC1(NC(=O)c2cc(-c3nn(-c4c(F)cccc4F)c4c(Cl)c[nH]c(=O)c34)cs2)CC1 [Example 163]

>  <assay target>
JAK1 (Homo sapiens, UniProt P23458)

>  <inhibition at 1 µM>
98%

$$$$
>  <compound>
NS(=O)(=O)c1ccc(-c2nn(C3CCCCC3)c3cc[nH]c(=O)c23)cc1 [Example 6]

>  <assay target>
JAK1 (Homo sapiens, UniProt P23458)

>  <inhibition at 1 µM>
98%

$$$$
>  <compound>
O=C(O)c1cc(-c2nn(-c3c(F)cccc3F)c3cc[nH]c(=O)c23)cs1 [Example 37]

>  <assay target>
JAK1 (Homo sapiens, UniProt P23458)

>  <inhibition at 1 µM>
99%

$$$$
>  <compound>
NC(=O)COc1ccc(-c2nn(-c3c(F)cccc3F)c3c(Cl)c[nH]c(=O)c23)cc1 [Example 169]

>  <assay target>
JAK1 (Homo sapiens, UniProt P23458)

>  <inhibition at 1 µM>
79%

$$$$
